# measurement-notes: In vivo cytokine assay, plasma of Renca tumor-bearing mice
# Parameters: species or system mouse
# condition-notes: Renca tumor-bearing mice; 24 h; 1.86 mg/kg
outcome-measure: IL-10 in plasma

{"columns": ["molecule", "outcome-measure", "reported-result"],
 "data": [
  ["CCn1nc(C)cc1C(=O)Nc1nc2cc(C(N)=O)cc(OC)c2n1C/C=C/Cn1c(NC(=O)c2cc(C)nn2CC)nc2cc(C(N)=O)cc(OCCCN3CCOCC3)c21.O=C(O)C(F)(F)F.O=C(O)C(F)(F)F.O=C(O)C(F)(F)F [Compound A, reference compound]", "IL-10 in plasma", "< 3.2 pg/mL"]
]}

* * *

# measurement-notes: In vivo cytokine assay, plasma of Renca tumor-bearing mice
# Design: species or system mouse
# condition-notes: Renca tumor-bearing mice; 3 h; 1.48 mg/kg

{"columns": ["record-smiles", "readout-unit", "IL12p70 in plasma"],
 "data": [
  ["CCn1nc(C)cc1C(=O)Nc1nc2cc(C(N)=O)cc(O)c2n1C/C=C/Cn1c(NC(=O)c2cc(C)nn2CC)nc2cc(C(N)=O)cc(OC)c21", "pg/mL", 174]
]}

* * *

# measurement-notes: In vivo cytokine assay, plasma of Renca tumor-bearing mice
# Set-up: species or system mouse
# condition-notes: Renca tumor-bearing mice; 3 h; 1.48 mg/kg
outcome-measure: IL1β in plasma (pg/mL)

{"columns": ["record-smiles", "reported-result"],
 "data": [
  ["CCn1nc(C)cc1C(=O)Nc1nc2cc(C(N)=O)cc(O)c2n1C/C=C/Cn1c(NC(=O)c2cc(C)nn2CC)nc2cc(C(N)=O)cc(OC)c21", 0.7]
]}

* * *

# measurement-notes: In vivo cytokine assay, plasma of Renca tumor-bearing mice
# Design: species or system mouse
# condition-notes: Renca tumor-bearing mice; 6 h; 1.86 mg/kg
outcome-measure: IL-10 in plasma

{"columns": ["compound", "reported-result"],
 "data": [
  ["CCn1nc(C)cc1C(=O)Nc1nc2cc(C(N)=O)cc(OC)c2n1C/C=C/Cn1c(NC(=O)c2cc(C)nn2CC)nc2cc(C(N)=O)cc(OCCCN3CCOCC3)c21.O=C(O)C(F)(F)F.O=C(O)C(F)(F)F.O=C(O)C(F)(F)F [Compound A, reference compound]", "< 3.2 pg/mL"]
]}

* * *

# measurement-notes: In vivo cytokine assay, plasma of Renca tumor-bearing mice
# Parameters: species or system mouse
# condition-notes: Renca tumor-bearing mice; 24 h; 1.86 mg/kg

{"columns": ["molecule", "IL12p70 in plasma"],
 "data": [
  ["CCn1nc(C)cc1C(=O)Nc1nc2cc(C(N)=O)cc(OC)c2n1C/C=C/Cn1c(NC(=O)c2cc(C)nn2CC)nc2cc(C(N)=O)cc(OCCCN3CCOCC3)c21.O=C(O)C(F)(F)F.O=C(O)C(F)(F)F.O=C(O)C(F)(F)F [Compound A, reference compound]", "< 3.2 pg/mL"]
]}

* * *

# measurement-notes: In vivo cytokine assay, plasma of Renca tumor-bearing mice
# Parameters: species or system mouse
# condition-notes: Renca tumor-bearing mice; 24 h; 1.48 mg/kg

{"columns": ["record-smiles", "IL-10 in plasma / pg/mL"],
 "data": [
  ["CCn1nc(C)cc1C(=O)Nc1nc2cc(C(N)=O)cc(O)c2n1C/C=C/Cn1c(NC(=O)c2cc(C)nn2CC)nc2cc(C(N)=O)cc(OC)c21", 34.6]
]}

* * *

# measurement-notes: In vivo cytokine assay, plasma of Renca tumor-bearing mice
# Design: species or system mouse
# condition-notes: Renca tumor-bearing mice; 3 h; 1.86 mg/kg

{"columns": ["compound", "IL1β in plasma (pg/mL)"],
 "data": [
  ["CCn1nc(C)cc1C(=O)Nc1nc2cc(C(N)=O)cc(OC)c2n1C/C=C/Cn1c(NC(=O)c2cc(C)nn2CC)nc2cc(C(N)=O)cc(OCCCN3CCOCC3)c21.O=C(O)C(F)(F)F.O=C(O)C(F)(F)F.O=C(O)C(F)(F)F [Compound A, reference compound]", 1.5]
]}

* * *

# measurement-notes: In vivo cytokine assay, plasma of Renca tumor-bearing mice
# Set-up: species or system mouse
# condition-notes: Renca tumor-bearing mice; 6 h; 1.48 mg/kg
outcome-measure: IP10 in plasma (pg/mL)

{"columns": ["record-smiles", "outcome-measure", "readout-unit", "reported-result"],
 "data": [
  ["CCn1nc(C)cc1C(=O)Nc1nc2cc(C(N)=O)cc(O)c2n1C/C=C/Cn1c(NC(=O)c2cc(C)nn2CC)nc2cc(C(N)=O)cc(OC)c21", "IP10 in plasma", "pg/mL", 3390]
]}

* * *

# measurement-notes: In vivo cytokine assay, plasma of Renca tumor-bearing mice
# Design: species or system mouse
# condition-notes: Renca tumor-bearing mice; 3 h; 1.86 mg/kg
outcome-measure: IP10 in plasma (pg/mL)

{"columns": ["compound", "readout-unit", "reported-result"],
 "data": [
  ["CCn1nc(C)cc1C(=O)Nc1nc2cc(C(N)=O)cc(OC)c2n1C/C=C/Cn1c(NC(=O)c2cc(C)nn2CC)nc2cc(C(N)=O)cc(OCCCN3CCOCC3)c21.O=C(O)C(F)(F)F.O=C(O)C(F)(F)F.O=C(O)C(F)(F)F [Compound A, reference compound]", "pg/mL", 4780]
]}

* * *

# measurement-notes: In vivo cytokine assay, plasma of Renca tumor-bearing mice
# Set-up: species or system mouse
# condition-notes: Renca tumor-bearing mice; 3 h; 1.48 mg/kg

{"columns": ["compound", "IP10 in plasma, pg/mL"],
 "data": [
  ["CCn1nc(C)cc1C(=O)Nc1nc2cc(C(N)=O)cc(O)c2n1C/C=C/Cn1c(NC(=O)c2cc(C)nn2CC)nc2cc(C(N)=O)cc(OC)c21 [Compound 1]", 703]
]}

* * *

# measurement-notes: In vivo cytokine assay, plasma of Renca tumor-bearing mice
# Parameters: species or system mouse
# condition-notes: Renca tumor-bearing mice; 24 h; 1.48 mg/kg

{"columns": ["record-smiles", "IL12p70 in plasma [pg/mL]"],
 "data": [
  ["CCn1nc(C)cc1C(=O)Nc1nc2cc(C(N)=O)cc(O)c2n1C/C=C/Cn1c(NC(=O)c2cc(C)nn2CC)nc2cc(C(N)=O)cc(OC)c21", 140]
]}

* * *

# measurement-notes: In vivo cytokine assay, plasma of Renca tumor-bearing mice
# Parameters: species or system mouse
# condition-notes: Renca tumor-bearing mice; 6 h; 1.86 mg/kg

{"columns": ["compound", "IL1β in plasma [pg/mL]"],
 "data": [
  ["CCn1nc(C)cc1C(=O)Nc1nc2cc(C(N)=O)cc(OC)c2n1C/C=C/Cn1c(NC(=O)c2cc(C)nn2CC)nc2cc(C(N)=O)cc(OCCCN3CCOCC3)c21.O=C(O)C(F)(F)F.O=C(O)C(F)(F)F.O=C(O)C(F)(F)F [Compound A, reference compound]", 0.6]
]}

* * *

# measurement-notes: In vivo cytokine assay, plasma of Renca tumor-bearing mice
# Design: species or system mouse
# condition-notes: Renca tumor-bearing mice; 24 h; 1.48 mg/kg

{"columns": ["record-smiles", "IFNγ in plasma"],
 "data": [
  ["CCn1nc(C)cc1C(=O)Nc1nc2cc(C(N)=O)cc(O)c2n1C/C=C/Cn1c(NC(=O)c2cc(C)nn2CC)nc2cc(C(N)=O)cc(OC)c21", "< 3.2 pg/mL"]
]}

* * *

# measurement-notes: In vivo cytokine assay, plasma of Renca tumor-bearing mice
# Parameters: species or system mouse
# condition-notes: Renca tumor-bearing mice; 3 h; 1.86 mg/kg
outcome-measure: IL12p70 in plasma

{"columns": ["compound", "outcome-measure", "reported-result"],
 "data": [
  ["CCn1nc(C)cc1C(=O)Nc1nc2cc(C(N)=O)cc(OC)c2n1C/C=C/Cn1c(NC(=O)c2cc(C)nn2CC)nc2cc(C(N)=O)cc(OCCCN3CCOCC3)c21.O=C(O)C(F)(F)F.O=C(O)C(F)(F)F.O=C(O)C(F)(F)F [Compound A, reference compound]", "IL12p70 in plasma", "0.2 pg/mL"]
]}

* * *

# measurement-notes: In vivo cytokine assay, plasma of Renca tumor-bearing mice
# Set-up: species or system mouse
# condition-notes: Renca tumor-bearing mice; 6 h; 1.86 mg/kg

{"columns": ["molecule", "IL-6 in plasma"],
 "data": [
  ["CCn1nc(C)cc1C(=O)Nc1nc2cc(C(N)=O)cc(OC)c2n1C/C=C/Cn1c(NC(=O)c2cc(C)nn2CC)nc2cc(C(N)=O)cc(OCCCN3CCOCC3)c21.O=C(O)C(F)(F)F.O=C(O)C(F)(F)F.O=C(O)C(F)(F)F [Compound A, reference compound]", "732 pg/mL"]
]}

* * *

# measurement-notes: In vivo cytokine assay, plasma of Renca tumor-bearing mice
# Design: species or system mouse
# condition-notes: Renca tumor-bearing mice; 24 h; 1.48 mg/kg
outcome-measure: IP10 in plasma (pg/mL)

{"columns": ["record-smiles", "outcome-measure", "reported-result"],
 "data": [
  ["CCn1nc(C)cc1C(=O)Nc1nc2cc(C(N)=O)cc(O)c2n1C/C=C/Cn1c(NC(=O)c2cc(C)nn2CC)nc2cc(C(N)=O)cc(OC)c21", "IP10 in plasma", 551]
]}
